Tested on: Glutamate receptor ionotropic, NMDA 3A (GRIN3A) ligand-binding domain
assay info: binders of NR3A ligand-binding domain, primary screen, biophysical, differential scanning fluorimetry, uHTS (AID 1259313)
measurement setup: NR3A LBD differential scanning fluorimetry, at 25 µM, 0% = protein alone, 100% = glycine-bound protein
Among all 340,000 compounds or so, about 8,500 (2.5%) were called active.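 The calls were made as follows: active = melting temperature shift of at least 10% of the positive control shift, at one fixed dose; inactive = the rest.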 This excerpt belongs to a sample that is enriched for actives.
Answer with one of the outcomes yes (1) = active, no (0) = inactive

- compound: "CC1CCCN(C(=O)c2cc(-c3ccco3)nc3ccccc23)C1 (stereo unspecified)"
  measurement target: "Glutamate receptor ionotropic, NMDA 3A (GRIN3A) ligand-binding domain"
  assigned class: "no (0)"

Then this compound:
For "Cc1ccc(-n2ncc3c(=O)[nH]cnc32)c(C)c1" , which call appears in the assay record?
no (0)

---

System: Glutamate receptor ionotropic, NMDA 3A (GRIN3A) ligand-binding domain
assay info: binders of NR3A ligand-binding domain, primary screen, biophysical, differential scanning fluorimetry, uHTS (AID 1259313)
measurement setup: NR3A LBD differential scanning fluorimetry, at 25 µM, active compounds read high, 0% = protein alone, 100% = glycine-bound protein
Hit rate of the full screen: of about 340,000 compounds, about 8,500 (2.5%) were called active. The sample holds actives, similar compounds and a random draw of the others, so the mix is not that of the screen.
measure name: Tm shift relative to glycine control (%)
Numbers only, in %.

- molecule: "Cc1c(NC(=S)NC(=O)CCc2ccccc2)c(=O)n(-c2ccccc2)n1C"
  Tm shift relative to glycine control (%): -3.07
- molecule: "FC(F)(F)c1ccc(-c2cccc3c2C2CC3CCN2Cc2ccccc2)cc1 (stereo not drawn)"
  Tm shift relative to glycine control (%): 0.87
- molecule: "COc1ccccc1N1CCN(/N=C/c2ccc(O)cc2O)CC1"
  Tm shift relative to glycine control (%): 1.98
- molecule: "CCOc1ccc(NC(=O)CSc2nncn2C)cc1"
  Tm shift relative to glycine control (%): -0.09
- molecule: "Oc1ccc(-c2nc3ccccc3nc2-c2ccc(O)cc2O)c(O)c1"
  Tm shift relative to glycine control (%): -6.22

# return Tm shift relative to glycine control for each item in the list
1. O=C(NCc1ccccn1)C1CCN(S(=O)(=O)c2ccc(Br)cc2)CC1
2. Cc1ccc2c(=O)cc(C(=O)NCCc3ccc(S(N)(=O)=O)cc3)oc2c1C
3. Cc1cc(=O)oc2c(C)c(OCC(=O)NCCc3ccc(S(N)(=O)=O)cc3)ccc12
4. Cc1ccc(C(=O)/C=C/Nc2ccc(S(=O)(=O)Nc3onc(C)c3C)cc2)cc1
5. OCC1(Cc2ccccc2C(F)(F)F)CCN(Cc2ccncc2)CC1
6. CN(C)CCCn1c(=O)n(Cc2ccccc2)c(=O)c2c3c(sc21)CCCCC3
7. O=C(c1ccc(F)cc1)c1c[nH]c(C(=O)NCc2cccnc2)c1
8. Cc1ccc(NC(=O)CCN2C(=O)c3ccccc3C2=O)cc1C

1. -1.11
2. 10.6
3. -1.05
4. -6.78
5. -1.43
6. -3.1
7. -1.06
8. -0.19

---

System: Glutamate receptor ionotropic, NMDA 3A (GRIN3A) ligand-binding domain
assay info: binders of NR3A ligand-binding domain, primary screen, biophysical, differential scanning fluorimetry, uHTS (AID 1259313)
measurement setup: NR3A LBD differential scanning fluorimetry, at 25 µM, active compounds read high, 0% = protein alone, 100% = glycine-bound protein
Among all 340,000 compounds or so, about 8,500 (2.5%) were called active. What follows is part of a selection rich in actives, with near analogues and random picks from the rest.
Task for the reader: assign each of the following molecules its reported Tm shift relative to glycine control.
One number for each entry, in %.

Some solved entries appear below for comparison.
- molecule: "COc1cc2ccccc2cc1C(=O)Nc1ccccc1C"
  readout value: 3.64
- molecule: "CCOC(=O)c1c(C)oc2cc(Sc3ccccc3)c(O)c(O)c12"
  readout value: 1.87
- molecule: "CCc1ccc(-c2nn(-c3ccccc3)cc2CSC(=N)N)cc1"
  readout value: -0.35
- molecule: "O=C(O)C1C2CC2CN1C(=O)c1ccc(Cl)cc1Cl (stereo not drawn)"
  readout value: -0.76
- molecule: "CC(C)(C)c1ccc(/C=C/C(=O)NCCCn2ccnc2)cc1"
  readout value: -0.74

# return Tm shift relative to glycine control for each item in the list
1. Cc1csc(NC(=O)c2ccc(-c3ccc(Cl)cc3Cl)o2)n1
2. O=S(=O)(Nc1n[nH]c(C(F)(F)F)n1)c1ccccc1

1. -7.24
2. -16.9

# return Tm shift relative to glycine control for each item in the list
1. Cc1ccc(C2=NN(C)c3nc4ccccc4n3C2)cc1
2. COc1ccc2[nH]c(C(=O)Nc3ccccc3Cl)cc2c1
3. COc1ccc(N2C(=O)C3C(C2=O)C(C(=O)c2ccccc2)N2CCCC32)cc1 (stereo not drawn)
4. COc1cc(OC)c(C(=O)Nc2ccccc2-c2ccccc2)cc1OC

1. -0.88
2. 1.25
3. -1.47
4. 11.5

# return Tm shift relative to glycine control for each item in the list
1. Cc1ccc(C(=O)Nc2nc3ccc(Cl)cc3s2)o1
2. C=CCNC(=S)N1CCc2[nH]c3ccccc3c2C1
3. Fc1ccc(NC(=S)N2CCc3[nH]c4ccccc4c3C2)cc1
4. Nc1cccc(S(=O)(=O)Nc2ccc(SC(F)F)cc2)c1
5. COC(=O)c1ccc(/C=N/OCC(=O)Nc2cc(F)ccc2F)cc1
6. Cc1nn(-c2ccccc2)c2c1C(c1ccc(F)cc1)C(C#N)=C(N)O2 (stereo not drawn)
7. Cc1sc2ncnc(N3CCC(C(=O)Nc4nc5ccc(Cl)cc5s4)CC3)c2c1C

11.1
-15.2
13.3
-8.52
1.06
-4.31
7.43

---

Task for the reader: assign each of the following compounds its reported Tm shift relative to glycine control.
System: Glutamate receptor ionotropic, NMDA 3A (GRIN3A) ligand-binding domain
assay info: binders of NR3A ligand-binding domain, primary screen, biophysical, differential scanning fluorimetry, uHTS (AID 1259313)
measurement setup: NR3A LBD differential scanning fluorimetry, at 25 µM, active compounds read high, 0% = protein alone, 100% = glycine-bound protein
In all, about 340,000 compounds went through this assay and about 8,500 (2.5%) were called active. This excerpt belongs to a sample that is enriched for actives.
Numbers only, in %.

Some solved entries appear below for comparison.
- compound: "O=C(Cn1c2[n+](c3ccc(C(F)(F)F)cc31)CCCCC2)Nc1c(F)cccc1F"
  measure name: "Tm shift relative to glycine control"
  readout value: -0.45
- compound: "COc1ccc(CN(C)Cc2nc3cc(OC)c(OC)cc3c(=O)[nH]2)c(OC)c1"
  measure name: "Tm shift relative to glycine control"
  readout value: -1.12
- compound: "Cc1csc(NC(=O)CSc2nc(=O)cc(N)n2-c2ccc(F)cc2)n1"
  measure name: "Tm shift relative to glycine control"
  readout value: -0.09
- compound: "Cc1c(S(=O)(=O)N2CC(C)CC(C)C2)c(=O)n(C)c(=O)n1C (stereo not given)"
  measure name: "Tm shift relative to glycine control"
  readout value: 11.1
- compound: "COc1cc(C(=O)Nn2c(O)c(C3=c4ccccc4=NC3=O)sc2=S)ccc1O"
  measure name: "Tm shift relative to glycine control"
  readout value: 11.1

# return Tm shift relative to glycine control for each item in the list
1. Cc1c(S(=O)(=O)NCc2ccccc2)c(=O)n(C)c(=O)n1C
2. Cc1ccc(C)c(NC(=O)c2ccc(OC(=O)c3ccco3)cc2)c1
3. CCC(C(=O)NCCC(C)C)N(Cc1ccccc1Cl)C(=O)c1snc(C(N)=O)c1N (stereo not given)
4. CC(=O)Nc1ccc(CN2CCN(Cc3ccc(F)c(F)c3)C(CCO)C2)cc1 (stereo not given)
5. COc1ccc(/C=C2/C(=O)OCc3cc(OC)c(OC)cc32)c(OC)c1

-0.41
-0.45
-0.19
-0.08
24.2

---

System: Glutamate receptor ionotropic, NMDA 3A (GRIN3A) ligand-binding domain
assay info: binders of NR3A ligand-binding domain, primary screen, biophysical, differential scanning fluorimetry, uHTS (AID 1259313)
measurement setup: NR3A LBD differential scanning fluorimetry, at 25 µM, 0% = protein alone, 100% = glycine-bound protein
Out of some 340,000 compounds screened, about 8,500 (2.5%) were called active.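 Rule for the calls: active = melting temperature shift of at least 10% of the positive control shift, at one fixed dose; inactive = the rest.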 Many of the other results were omitted from the sample, so actives are more common in it than they were.
Answer with one of the outcomes yes for active, no for inactive

- chemical smiles: "Cc1ccccc1NC(=O)c1cc(S(=O)(=O)Nc2cccc(C(=O)O)c2)ccc1Cl"
  assigned class: "no"
- chemical smiles: "C=CCNC(=O)c1ccccc1NC(=O)c1ccc(Cl)c(S(=O)(=O)Nc2cccc(C)c2C)c1"
  assigned class: "yes"
- chemical smiles: "O=C(CCn1nnc2ccccc21)OCC(=O)c1ccc([N+](=O)[O-])cc1"
  assigned class: "no"
- chemical smiles: "C=CCOc1c(CNn2cn[nH]c2=S)cccc1OC"
  assigned class: "no"
- chemical smiles: "Cc1ccc2cccc(OCCCOc3ccccc3CO)c2n1"
  assigned class: "no"

For "CC(C)C(=O)Nc1cccc(NC(=O)c2ccc([N+](=O)[O-])cc2Cl)c1" , which call appears in the assay record?
no
